# Test system: PBM cells
# Protocol notes: Cell viability resazurin assay, PBM cells
# Format: cell-based, human
# Test parameters: 2 h incubation, 1 µM, ± SD
Property label: viability of PBM cells relative to control (%)
The reply should contain only the number, in %.

Worked examples, 3 compounds total:
O=C1C=CC(=O)[N-]1.[C-]#[O+].[Fe+2].c1cc[cH-]c1.c1coc(P(c2ccco2)c2ccco2)c1 ... 97.62
O=C1C=CC(=O)[N-]1.[C-]#[O+].[C-]#[O+].[Fe+2].c1cc[cH-]c1 ... 100.74
O=C1C=CC(=O)[N-]1.[C-]#[O+].[Fe+2].c1cc[cH-]c1.c1ccc(OP(Oc2ccccc2)Oc2ccccc2)cc1 ... 99.88

The reported viability of PBM cells relative to control value, PBM cells, for CCOP(OCC)OCC.O=C1C=CC(=O)[N-]1.[C-]#[O+].[Fe+2].c1cc[cH-]c1 reads 82.59

The reported viability of PBM cells relative to control value, PBM cells, for O=C1C=CC(=O)[N-]1.[C-]#[O+].[Fe+2].c1cc[cH-]c1.c1ccc(P(c2ccccc2)c2ccccc2)cc1 reads 98.65

* * *

Catalogue of viability of A549 cells relative to control readings, one per entry.
# Test system: A549 cells
# Protocol notes: Cell viability resazurin assay, A549 cells
# Type: cell-based, human
# Test parameters: 2 h incubation, 100 µM, ± SD
The reply should contain only the number, in %.

Worked examples, 4 compounds total:
O=C1C=CC(=O)[N-]1.[C-]#[O+].[Fe+2].c1cc[cH-]c1.c1ccc(P(c2ccccc2)c2ccccc2)cc1 [2a, CpFe(CO)(PPh3)(η^1-N-maleimidato)] ... 68.25
O=C1C=CC(=O)[N-]1.[C-]#[O+].[Fe+2].c1cc[cH-]c1.c1coc(P(c2ccco2)c2ccco2)c1 [2b, CpFe(CO)(P(Fu)3)(η^1-N-maleimidato)] ... 84.95
O=C1C=CC(=O)[N-]1.[C-]#[O+].[C-]#[O+].[Fe+2].c1cc[cH-]c1 [compound 1, CpFe(CO)2(η^1-N-maleimidato)] ... 36.49
CCOP(OCC)OCC.O=C1C=CC(=O)[N-]1.[C-]#[O+].[Fe+2].c1cc[cH-]c1 [3a] ... 74.97

# next compound below
Memo: O=C1C=CC(=O)[N-]1.[C-]#[O+].[Fe+2].c1cc[cH-]c1.c1ccc(OP(Oc2ccccc2)Oc2ccccc2)cc1 [3b, CpFe(CO)(P(OPh)3)(η^1-N-maleimidato)] , reported viability of A549 cells relative to control: 97.69

* * *

# System: A549 cells
# Protocol notes: Cell viability resazurin assay, A549 cells
# Type: cell-based, human
# Test parameters: 24 h incubation, 10 µM, ± SD
API: label(entry) gives Fulfilled if the entry's viability of A549 cells relative to control is strictly smaller than 90%; on equality or larger values it gives Not fulfilled.

O=C1C=CC(=O)[N-]1.[C-]#[O+].[Fe+2].c1cc[cH-]c1.c1ccc(OP(Oc2ccccc2)Oc2ccccc2)cc1 ... Fulfilled

In plain terms, does O=C1C=CC(=O)[N-]1.[C-]#[O+].[C-]#[O+].[Fe+2].c1cc[cH-]c1 come in under 90% for viability of A549 cells relative to control?
Not fulfilled

In plain terms, does O=C1C=CC(=O)[N-]1.[C-]#[O+].[Fe+2].c1cc[cH-]c1.c1ccc(P(c2ccccc2)c2ccccc2)cc1 come in under 90% for viability of A549 cells relative to control?
Not fulfilled

In plain terms, does CCOP(OCC)OCC.O=C1C=CC(=O)[N-]1.[C-]#[O+].[Fe+2].c1cc[cH-]c1 come in under 90% for viability of A549 cells relative to control?
Fulfilled

* * *

# Test system: PBM cells
# Protocol notes: Cell viability resazurin assay, PBM cells
# Format: cell-based, human
# Test parameters: 2 h incubation, 250 µM, ± SD
Catalogue of viability of PBM cells relative to control readings, one per entry.
The reply should contain only the number, in %.

Worked examples, 3 molecules total:
O=C1C=CC(=O)[N-]1.[C-]#[O+].[C-]#[O+].[Fe+2].c1cc[cH-]c1 [compound 1, CpFe(CO)2(η^1-N-maleimidato)] ... 93.17
O=C1C=CC(=O)[N-]1.[C-]#[O+].[Fe+2].c1cc[cH-]c1.c1ccc(P(c2ccccc2)c2ccccc2)cc1 [2a, CpFe(CO)(PPh3)(η^1-N-maleimidato)] ... 104.85
O=C1C=CC(=O)[N-]1.[C-]#[O+].[Fe+2].c1cc[cH-]c1.c1coc(P(c2ccco2)c2ccco2)c1 [2b, CpFe(CO)(P(Fu)3)(η^1-N-maleimidato)] ... 75.23

Memo: CCOP(OCC)OCC.O=C1C=CC(=O)[N-]1.[C-]#[O+].[Fe+2].c1cc[cH-]c1 [3a] , reported viability of PBM cells relative to control: 98.17

Memo: O=C1C=CC(=O)[N-]1.[C-]#[O+].[Fe+2].c1cc[cH-]c1.c1ccc(OP(Oc2ccccc2)Oc2ccccc2)cc1 [3b, CpFe(CO)(P(OPh)3)(η^1-N-maleimidato)] , reported viability of PBM cells relative to control: 99.51

* * *

Catalogue of viability of PBM cells relative to control readings, one per entry.
# Test system: PBM cells
# Protocol notes: Cell viability resazurin assay, PBM cells
# Assay type: cell-based, human
# Test parameters: 2 h incubation, 5 µM, ± SD
The reply should contain only the number, in %.

O=C1C=CC(=O)[N-]1.[C-]#[O+].[C-]#[O+].[Fe+2].c1cc[cH-]c1 [compound 1, CpFe(CO)2(η^1-N-maleimidato)] ... 99.26

Memo: CCOP(OCC)OCC.O=C1C=CC(=O)[N-]1.[C-]#[O+].[Fe+2].c1cc[cH-]c1 [3a] , reported viability of PBM cells relative to control: 86.67

Memo: O=C1C=CC(=O)[N-]1.[C-]#[O+].[Fe+2].c1cc[cH-]c1.c1coc(P(c2ccco2)c2ccco2)c1 [2b, CpFe(CO)(P(Fu)3)(η^1-N-maleimidato)] , reported viability of PBM cells relative to control: 97

Memo: O=C1C=CC(=O)[N-]1.[C-]#[O+].[Fe+2].c1cc[cH-]c1.c1ccc(OP(Oc2ccccc2)Oc2ccccc2)cc1 [3b, CpFe(CO)(P(OPh)3)(η^1-N-maleimidato)] , reported viability of PBM cells relative to control: 100.32

Memo: O=C1C=CC(=O)[N-]1.[C-]#[O+].[Fe+2].c1cc[cH-]c1.c1ccc(P(c2ccccc2)c2ccccc2)cc1 [2a, CpFe(CO)(PPh3)(η^1-N-maleimidato)] , reported viability of PBM cells relative to control: 98.94

* * *

# Test system: PBM cells
# Protocol notes: Cell viability resazurin assay, PBM cells
# Type: cell-based, human
# Test parameters: 2 h incubation, 0.5 µM, ± SD
Property label: viability of PBM cells relative to control (%)
The reply should contain only the number, in %.

Worked examples, 4 molecules total:
O=C1C=CC(=O)[N-]1.[C-]#[O+].[Fe+2].c1cc[cH-]c1.c1coc(P(c2ccco2)c2ccco2)c1 [2b, CpFe(CO)(P(Fu)3)(η^1-N-maleimidato)] ... 98.07
O=C1C=CC(=O)[N-]1.[C-]#[O+].[Fe+2].c1cc[cH-]c1.c1ccc(P(c2ccccc2)c2ccccc2)cc1 [2a, CpFe(CO)(PPh3)(η^1-N-maleimidato)] ... 98.55
O=C1C=CC(=O)[N-]1.[C-]#[O+].[C-]#[O+].[Fe+2].c1cc[cH-]c1 [compound 1, CpFe(CO)2(η^1-N-maleimidato)] ... 101.07
CCOP(OCC)OCC.O=C1C=CC(=O)[N-]1.[C-]#[O+].[Fe+2].c1cc[cH-]c1 [3a] ... 83.62

# next molecule below
Memo: O=C1C=CC(=O)[N-]1.[C-]#[O+].[Fe+2].c1cc[cH-]c1.c1ccc(OP(Oc2ccccc2)Oc2ccccc2)cc1 [3b, CpFe(CO)(P(OPh)3)(η^1-N-maleimidato)] , reported viability of PBM cells relative to control: 98.5

* * *

# Test system: HL-60 cells
# Protocol notes: Cell viability resazurin assay, HL-60 cells
# Assay type: cell-based, human
# Test parameters: 24 h incubation, 0.5 µM, ± SD
Property label: viability of HL-60 cells relative to control (%)
The reply should contain only the number, in %.

Worked examples, 3 compounds total:
O=C1C=CC(=O)[N-]1.[C-]#[O+].[Fe+2].c1cc[cH-]c1.c1ccc(OP(Oc2ccccc2)Oc2ccccc2)cc1 ... 101.68
O=C1C=CC(=O)[N-]1.[C-]#[O+].[Fe+2].c1cc[cH-]c1.c1ccc(P(c2ccccc2)c2ccccc2)cc1 ... 103.09
O=C1C=CC(=O)[N-]1.[C-]#[O+].[C-]#[O+].[Fe+2].c1cc[cH-]c1 ... 106.53

Memo: CCOP(OCC)OCC.O=C1C=CC(=O)[N-]1.[C-]#[O+].[Fe+2].c1cc[cH-]c1 , reported viability of HL-60 cells relative to control: 107.33

Memo: O=C1C=CC(=O)[N-]1.[C-]#[O+].[Fe+2].c1cc[cH-]c1.c1coc(P(c2ccco2)c2ccco2)c1 , reported viability of HL-60 cells relative to control: 107.57
